biological target: IRAK4 (Homo sapiens, UniProt Q9NWZ3); experiment: RBC HotSpot Kinase Assay, IRAK4; assay type: biochemical; parameters: purchased Reaction Biology (RBC HotSpot Kinase Assay)
Sequence (Q9NWZ3 whole entry): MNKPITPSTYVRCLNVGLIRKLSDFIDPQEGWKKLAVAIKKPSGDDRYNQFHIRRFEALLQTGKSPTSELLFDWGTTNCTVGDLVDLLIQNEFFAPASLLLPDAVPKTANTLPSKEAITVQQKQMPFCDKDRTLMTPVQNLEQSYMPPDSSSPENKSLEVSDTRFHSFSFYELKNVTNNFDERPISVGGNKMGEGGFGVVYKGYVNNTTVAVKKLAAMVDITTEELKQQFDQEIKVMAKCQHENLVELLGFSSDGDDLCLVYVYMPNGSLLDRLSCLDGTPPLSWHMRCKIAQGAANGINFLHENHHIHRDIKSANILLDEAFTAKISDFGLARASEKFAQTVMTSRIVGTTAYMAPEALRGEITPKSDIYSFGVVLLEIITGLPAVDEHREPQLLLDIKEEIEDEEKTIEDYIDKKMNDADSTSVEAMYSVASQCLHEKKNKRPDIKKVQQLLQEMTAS
measurement-kind: IC50 (nM)
Reply with just the number (in nM).

Example entries begin here.
O[C@H]1CNC[C@@H]1Nc1cccc(-c2cnc3ccc(C4CC4)nn23)n1    586
F[C@H]1CNC[C@@H]1Nc1cccc(-c2cnc3ccc(NC4CCCCC4)nn23)n1    1080
COc1cc2ncc(-c3cccc(N[C@H]4CNC[C@@H]4C)n3)n2nc1C1(C(F)(F)F)CC1    25

Req: // fetch IRAK4 (Homo sapiens, UniProt Q9NWZ3) IC50 for `FC(F)(F)[C@H]1CNC[C@@H]1Nc1cccc(-c2cnc3ccc(C4CC4)nn23)n1`
Resp: 36

Req: Request: IC50, test system IRAK4 (Homo sapiens, UniProt Q9NWZ3), entry `F[C@H]1CNC[C@@H]1Nc1cccc(-c2cnc3cc(Cl)cnn23)n1`
Resp: 190

Req: GET /values?readout=IC50&system=IRAK4 (Homo sapiens, UniProt Q9NWZ3)&item= `Cn1cc(-c2ccc3ncc(-c4cccc(N[C@@H]5CCCNC5)n4)n3n2)cn1`
Resp: 13

Req: Observed IC50 on IRAK4 (Homo sapiens, UniProt Q9NWZ3) for `CC(C)(O)Cn1cc(-c2ccc3ncc(-c4cccc(N[C@H]5CNC[C@@H]5F)n4)n3n2)cn1` , please.
Resp: 114

Req: Fill in the recorded IC50 for this molecule, with IRAK4 (Homo sapiens, UniProt Q9NWZ3) as test system: `FC(F)[C@H]1CNC[C@@H]1Nc1cccc(-c2cnc3ccc(C4CC4)nn23)n1`
Resp: 36

Req: Fill in the recorded IC50 for this molecule, with IRAK4 (Homo sapiens, UniProt Q9NWZ3) as test system: COc1cc2ncc(-c3cccc(N[C@H]4CNCC[C@@H]4F)n3)n2nc1C(C)(O)C(F)(F)F (single isomer, unassigned; fast-eluting) [Compound 134]
Resp: 183

Req: Lookup: IC50 / IRAK4 (Homo sapiens, UniProt Q9NWZ3) / `FC(F)n1cc(-c2ccc3ncc(-c4cccc(N[C@H]5CNC[C@@H]5C(F)(F)F)n4)n3n2)cn1`
Resp: 128

Req: Entry COc1cc2ncc(-c3cccc(N[C@H]4CNCC[C@@H]4F)n3)n2nc1C(C)(O)C(F)(F)F (single isomer, unassigned; slow-eluting) [Compound 136] , system IRAK4 (Homo sapiens, UniProt Q9NWZ3): what IC50 was measured?
Resp: 10
